Ref: patent US20260015426A1

measured on: T1, human IL1RAP (hu-IL1RAP) on human cells (human, UniProt Q9NPH3 21-570)
T1 sequence: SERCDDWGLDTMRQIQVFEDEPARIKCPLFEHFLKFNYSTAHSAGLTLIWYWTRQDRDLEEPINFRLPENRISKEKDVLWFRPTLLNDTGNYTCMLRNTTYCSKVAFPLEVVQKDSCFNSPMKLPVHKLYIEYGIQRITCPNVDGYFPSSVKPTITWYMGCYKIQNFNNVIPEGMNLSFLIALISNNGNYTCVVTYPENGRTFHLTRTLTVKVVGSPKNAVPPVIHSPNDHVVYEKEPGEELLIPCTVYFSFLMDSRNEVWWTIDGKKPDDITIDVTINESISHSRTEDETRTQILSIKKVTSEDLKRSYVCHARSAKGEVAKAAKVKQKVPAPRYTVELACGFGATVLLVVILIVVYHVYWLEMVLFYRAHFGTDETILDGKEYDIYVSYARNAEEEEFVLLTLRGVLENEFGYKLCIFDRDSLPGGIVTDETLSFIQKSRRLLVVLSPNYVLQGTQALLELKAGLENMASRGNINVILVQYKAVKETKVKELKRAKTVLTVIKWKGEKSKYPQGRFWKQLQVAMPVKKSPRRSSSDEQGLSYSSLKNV
measurement protocol: cell-based or functional assay
Kindly supply the reported HEK-Blue, IL-33, % inhibition at 100 nM (IgG) values for the records listed here.
Numbers only, in %.

binder	value
K10/H2 IgG (VL-A51Y, VH-R96D) (antibody, V domains shown) VH: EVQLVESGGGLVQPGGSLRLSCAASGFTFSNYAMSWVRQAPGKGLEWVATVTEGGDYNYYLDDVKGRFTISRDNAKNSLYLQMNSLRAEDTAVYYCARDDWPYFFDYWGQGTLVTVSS VL: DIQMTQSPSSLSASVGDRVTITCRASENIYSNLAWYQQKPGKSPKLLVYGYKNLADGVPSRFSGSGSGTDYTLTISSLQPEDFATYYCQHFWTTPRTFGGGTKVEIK	100

Would you mind giving HEK-Blue, IL-33, % inhibition at 100 nM (IgG) for every binder in the list below?
1. K10/H3 IgG (VL-A51Y, VH-V51S) (antibody, V domains shown) VH: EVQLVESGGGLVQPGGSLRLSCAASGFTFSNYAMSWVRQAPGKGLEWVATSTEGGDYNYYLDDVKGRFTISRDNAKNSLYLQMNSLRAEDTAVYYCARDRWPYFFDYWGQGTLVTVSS VL: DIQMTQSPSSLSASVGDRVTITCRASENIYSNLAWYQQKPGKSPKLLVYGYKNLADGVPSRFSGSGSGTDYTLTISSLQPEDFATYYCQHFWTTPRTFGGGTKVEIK
2. K10 IgG (VL-A51Y) (antibody, V domains shown) VH: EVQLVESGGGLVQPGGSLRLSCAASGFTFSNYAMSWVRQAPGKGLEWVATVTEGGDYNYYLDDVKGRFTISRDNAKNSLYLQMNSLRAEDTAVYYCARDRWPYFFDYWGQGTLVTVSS VL: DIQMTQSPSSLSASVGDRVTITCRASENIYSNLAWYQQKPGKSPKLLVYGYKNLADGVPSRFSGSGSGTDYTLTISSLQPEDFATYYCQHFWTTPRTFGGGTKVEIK

99
100
